Molecular target: ~100 representative kinases (Homo sapiens, UniProt P49759)
Construct: Recombinant protein kinase domains with a concentration of 2 μM
Sequence (P49759 whole entry, the tested form may be a part): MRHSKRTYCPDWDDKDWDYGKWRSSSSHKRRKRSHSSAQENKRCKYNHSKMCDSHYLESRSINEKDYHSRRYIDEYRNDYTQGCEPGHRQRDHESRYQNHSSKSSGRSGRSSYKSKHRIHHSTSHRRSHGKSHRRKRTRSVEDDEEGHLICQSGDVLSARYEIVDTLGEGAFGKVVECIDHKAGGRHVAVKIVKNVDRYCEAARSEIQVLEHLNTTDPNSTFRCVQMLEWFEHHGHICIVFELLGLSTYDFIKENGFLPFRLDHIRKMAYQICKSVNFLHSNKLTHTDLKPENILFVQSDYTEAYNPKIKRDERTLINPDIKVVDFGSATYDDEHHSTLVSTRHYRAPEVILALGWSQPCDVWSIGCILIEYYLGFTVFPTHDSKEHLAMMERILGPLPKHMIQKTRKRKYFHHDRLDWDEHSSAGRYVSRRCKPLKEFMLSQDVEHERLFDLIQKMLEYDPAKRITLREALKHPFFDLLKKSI
Test: DSF 100 kinase selectivity screen;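 also: compound tested at 20 µM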
Assay type: binding
Conditions: Protein CLK1; average of three replicates
assay readout: dTm
Please provide the amount together with its unit, number first.

These recorded examples may help you get a feel for the data.
# smiles entry, value reported
rows = [
    ("C[C@@H]1CN(c2cc(-c3n[nH]c4ccc(OC5(C)CC5)cc34)ncn2)C[C@H](C)O1", "3.00 K"),
    ("CCSc1nc(NC)c2c(-c3cccc(NC(=O)Nc4cc(C(C)(C)C)nn4-c4ccc(C)cc4)c3)c[nH]c2n1", "5.52 K"),
    ("Cc1cc(NC(=O)C2(C(=O)Nc3cccc(-c4c[nH]c5ncnc(N6CCOCC6)c45)c3)CC2)ccc1F", "11.22 K"),
]

The compound COc1cc(NC(=O)C2(C(=O)Nc3cccc(-c4c[nH]c5ncnc(N6CCOCC6)c45)c3)CC2)ccc1F on ~100 representative kinases (Homo sapiens, UniProt P49759): dTm was 10.73 K

---

Molecular target: ~100 representative kinases (Homo sapiens, UniProt P15735)
Construct: Recombinant protein kinase domains with a concentration of 2 μM
Sequence (P15735 whole entry, the tested form may be a part): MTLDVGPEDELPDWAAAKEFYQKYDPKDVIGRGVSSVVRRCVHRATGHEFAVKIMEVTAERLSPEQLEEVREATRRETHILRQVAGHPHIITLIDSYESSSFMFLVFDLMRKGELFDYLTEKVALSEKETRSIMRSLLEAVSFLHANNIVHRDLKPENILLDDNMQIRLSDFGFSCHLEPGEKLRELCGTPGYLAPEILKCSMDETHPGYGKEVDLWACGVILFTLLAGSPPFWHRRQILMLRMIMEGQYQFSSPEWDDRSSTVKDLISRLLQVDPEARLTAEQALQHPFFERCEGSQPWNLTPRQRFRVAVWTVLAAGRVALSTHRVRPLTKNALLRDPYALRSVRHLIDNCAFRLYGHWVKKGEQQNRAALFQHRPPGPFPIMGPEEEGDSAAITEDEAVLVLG
Assay: DSF 100 kinase selectivity screen;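 also: compound tested at 20 µM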
Assay type: binding
Details: protein PHKG2; average of three replicates
Provide the recorded dTm for the entries that follow.
Answers are plain numbers, in K.

Provide the reported dTm of each entry below, same order.
1. O=C(Nc1cccc(-c2c[nH]c3ncnc(N4CCOCC4)c23)c1)C1(C(=O)Nc2ccc(F)cc2F)CC1
2. O=C(Nc1cccc(-c2c[nH]c3ncnc(N4CCOCC4)c23)c1)C1(C(=O)Nc2ccc(F)c(Br)c2F)CC1
3. O=C(Nc1ccc(Cl)cc1)C1(C(=O)Nc2cccc(-c3c[nH]c4ncnc(N5CCOCC5)c34)c2)CC1
4. CC(=O)N1CCN(c2nc(Cl)nc3[nH]cc(-c4cccc(NC(=O)Nc5cc(C(C)(C)C)nn5-c5ccc(C)cc5)c4)c23)CC1
5. COc1cc(NC(=O)C2(C(=O)Nc3cccc(-c4c[nH]c5ncnc(N6CCOCC6)c45)c3)CC2)ccc1F
6. COc1cc(C(=O)N2CCOCC2)c(F)cc1Nc1nc(N(C)C)c2c(Cl)c[nH]c2n1
7. Cc1ccc(C(=O)Nc2ccc(CN3CCN(C)CC3)c(C(F)(F)F)c2)cc1C#Cc1cnc2[nH]ncc2c1 [GZD-824, reference compound]

*A*
1: 0.21; 2: 0.60; 3: 3.23; 4: -0.72; 5: 0.25; 6: 7.95; 7: -0.11

---

Kindly supply the reported dTm values for the records listed here.
Target: ~100 representative kinases (Homo sapiens, UniProt Q96L34)
Construct: Recombinant protein kinase domains with a concentration of 2 μM
Sequence (Q96L34 whole entry, the tested form may be a part): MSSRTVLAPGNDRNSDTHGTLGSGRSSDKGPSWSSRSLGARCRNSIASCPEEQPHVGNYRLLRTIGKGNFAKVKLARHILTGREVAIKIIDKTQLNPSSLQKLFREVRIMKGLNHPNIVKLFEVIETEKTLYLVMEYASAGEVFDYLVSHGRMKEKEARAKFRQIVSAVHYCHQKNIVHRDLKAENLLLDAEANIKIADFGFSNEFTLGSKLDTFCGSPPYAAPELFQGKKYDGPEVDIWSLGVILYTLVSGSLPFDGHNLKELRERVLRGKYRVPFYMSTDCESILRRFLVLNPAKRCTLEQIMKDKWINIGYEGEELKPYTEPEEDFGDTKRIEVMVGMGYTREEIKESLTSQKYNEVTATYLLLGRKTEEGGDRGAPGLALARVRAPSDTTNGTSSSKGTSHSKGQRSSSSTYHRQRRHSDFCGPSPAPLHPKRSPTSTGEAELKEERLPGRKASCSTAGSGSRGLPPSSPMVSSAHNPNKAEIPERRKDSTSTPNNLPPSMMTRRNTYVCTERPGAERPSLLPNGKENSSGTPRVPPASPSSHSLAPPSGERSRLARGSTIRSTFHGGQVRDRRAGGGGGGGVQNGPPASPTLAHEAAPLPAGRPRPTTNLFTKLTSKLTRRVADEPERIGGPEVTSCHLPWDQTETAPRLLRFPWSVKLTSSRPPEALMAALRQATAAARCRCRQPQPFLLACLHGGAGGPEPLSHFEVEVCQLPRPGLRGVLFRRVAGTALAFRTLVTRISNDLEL
Experiment: DSF 100 kinase selectivity screen;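 also: compound tested at 20 µM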
Type: binding
Conditions: protein MARK4; average of three replicates
Description: Recombinant protein kinase domains with a concentration of 2 μM were mixed with a 20 μM compound solution in dimethyl sulfoxide (DMSO), 20 mM Hepes (pH 7.5), and 500 mM NaCl. SYPRO Orange (5000×, Invitrogen) was added as a fluorescence probe (1μl/ml). Subsequently, temperature-dependent protein unfolding profiles were measured using the QuantStudio 5 realtime PCR machine (Thermo Fisher Scientific, Waltham, MA, USA). […] The temperature was raised with a step rate of 3°C/min. […]
Output should be the measured figure followed by the unit it is expressed in.

Solved cases (2 shown):
# compound, measured target, assay readout, value reported
data = [
    ("O=C(Nc1cccc(-c2c[nH]c3ncnc(N4CCOCC4)c23)c1)C1(C(=O)Nc2ccc(F)c(Br)c2F)CC1", "~100 representative kinases (Homo sapiens, UniProt Q96L34)", "dTm", "1.86 K"),
    ("COc1ccc(NC(=O)C2(C(=O)Nc3cccc(-c4c[nH]c5ncnc(N6CCOCC6)c45)c3)CC2)cc1", "~100 representative kinases (Homo sapiens, UniProt Q96L34)", "dTm", "2.27 K"),
]

# batch: return dTm for each of the 3 compounds below
1. COc1cc2c(Oc3ccc(NC(=O)C4(C(=O)Nc5ccc(F)cc5)CC4)cc3F)ccnc2cc1OCCCN1CCOCC1 [Foretinib, reference compound]
2. CNC(=O)c1cc(Oc2ccc(NC(=O)Nc3cc(C(C)(C)C)nn3-c3ccc4ncccc4c3)c(F)c2)ccn1 [Rebastinib, reference compound]
3. O=C(Nc1cc(F)cc(Br)c1)C1(C(=O)Nc2cccc(-c3c[nH]c4ncnc(N5CCOCC5)c34)c2)CC1

*A*
1.64 K
2.04 K
1.77 K
